- Procedure Details: Repeated once-daily oral dosing with food (Days 1-7) in healthy subjects, PK and PD
- Assay type: in vivo, human
- Conditions Used: female, human, plasma, oral, females, all doses pooled, Day 1; read-out: Vz/F, Mean (SD)

Molecule: Cc1ccc(COC(=O)N2CC[C@H](CNc3ncccn3)[C@H](F)C2)cc1 [Form II]
Vd/F, L: 182

* * *

- Procedure Details: Repeated once-daily oral dosing with food (Days 1-7) in healthy subjects, PK and PD
- Type: in vivo, human
- Conditions Used: both sexes, human, plasma, oral, 8 mg, young subjects, 8 mg, Day 7; read-out: tmax, Mean (SD)

Molecule: Cc1ccc(COC(=O)N2CC[C@H](CNc3ncccn3)[C@H](F)C2)cc1 [Form II]
Tmax: 2.75 h
